# study.system: GPR103 T102^2.61A (Homo sapiens, UniProt Q96P65, T102A)
# Construct: we used human full-length QRFPR-encoding plasmids; expressed in transfected cells; host or cells: HEK293 cells, pCAGGS vector
# assay.procedure: TGFα shedding assay; Exp. level WT (1:1)
# Type: cell-based
# applied.conditions: n = 3
No end group written: not given here.
value.kind: EC50 (nM)
Give bare numbers, in nM.

Enquiry: State the recorded EC50 for this entry: TSGPLGNLAEELNGYSRKKGGFSFRF-NH2 [QRFP26]
Return: 20.4

* * *

# study.system: GPR103 ΔCterm (Homo sapiens, UniProt Q96P65)
# Construct: we truncated the C-terminal residues after G366 of human GPR103; expressed in transfected cells; host or cells: HEK293 cells, pCAGGS vector
# Sequence (Q96P65 1-366): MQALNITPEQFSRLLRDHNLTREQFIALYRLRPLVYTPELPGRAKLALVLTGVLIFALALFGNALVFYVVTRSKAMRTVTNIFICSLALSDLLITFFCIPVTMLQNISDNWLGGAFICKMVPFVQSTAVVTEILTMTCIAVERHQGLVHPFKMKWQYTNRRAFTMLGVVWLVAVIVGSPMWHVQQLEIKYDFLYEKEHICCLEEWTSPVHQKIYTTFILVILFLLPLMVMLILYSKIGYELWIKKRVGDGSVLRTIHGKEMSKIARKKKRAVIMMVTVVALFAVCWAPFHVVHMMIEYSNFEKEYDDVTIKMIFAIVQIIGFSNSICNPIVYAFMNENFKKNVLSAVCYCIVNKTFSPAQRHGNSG
# assay.procedure: TGFα shedding assay; Exp. level WT (1:20)
# Assay type: cell-based
# applied.conditions: n = 3
# Method: For the TGFα shedding assay and the flow cytometry analysis, we used human full-length QRFPR-encoding plasmids. […] The TGFα shedding assay was performed as described previously with minor modifications. […] Absorbance at 405 nm of the plates was measured using a microplate reader (SpectraMax 340 PC384, Molecular Devices) before and after 1-h incubation at room temperature. […] mutants. […] From the concentration–response curves (a), Emax (c) and ΔpEC50 (d) values relative to the wild type were calculated. […]
No end group written: not given here.
value.kind: EC50 (µM)
Numbers only, in µM.

Enquiry: State the recorded EC50 for this entry: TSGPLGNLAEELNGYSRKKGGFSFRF-NH2 [QRFP26]
Return: 0.0112

* * *

# study.system: GPR103 C98^2.57A (Homo sapiens, UniProt Q96P65, C98A)
# Construct: we used human full-length QRFPR-encoding plasmids; expressed in transfected cells; host or cells: HEK293 cells, pCAGGS vector
# assay.procedure: TGFα shedding assay; Exp. level WT (1:50)
# Type: cell-based
# applied.conditions: n = 3
No end group written: not given here.
value.kind: EC50
Remember to quote the unit after the number.

Enquiry: Please provide the recorded EC50 for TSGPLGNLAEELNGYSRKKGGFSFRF-NH2 [QRFP26] , tested on GPR103 C98^2.57A (Homo sapiens, UniProt Q96P65, C98A).
Return: 72.4 nM

* * *

# study.system: GPR103 V129^3.36A (Homo sapiens, UniProt Q96P65, V129A)
# Construct: we used human full-length QRFPR-encoding plasmids; expressed in transfected cells; host or cells: HEK293 cells, pCAGGS vector
# assay.procedure: TGFα shedding assay; Exp. level WT (1:20)
# Format: cell-based
# applied.conditions: n = 3
No end group written: not given here.
value.kind: EC50 (µM)
Give bare numbers, in µM.

Enquiry: State the recorded EC50 for this entry: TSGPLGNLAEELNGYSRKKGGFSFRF-NH2 [QRFP26]
Return: 0.135

* * *

# study.system: GPR103 C285^6.47A (Homo sapiens, UniProt Q96P65, C285A)
# Construct: we used human full-length QRFPR-encoding plasmids; expressed in transfected cells; host or cells: HEK293 cells (HEK293A in the flow cytometry section), pCAGGS vector
# assay.procedure: TGFα shedding assay; Exp. level WT (1:20)
# Type: cell-based
# applied.conditions: n = 3
No end group written: not given here.
value.kind: pEC50
Numbers only, as −log10 of the molar value.

Enquiry: State the recorded pEC50 for this entry: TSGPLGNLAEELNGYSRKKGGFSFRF-NH2 [QRFP26]
Return: 7.85

* * *

# study.system: GPR103 L193^ECL2A (Homo sapiens, UniProt Q96P65, L193A)
# Construct: we used human full-length QRFPR-encoding plasmids; expressed in transfected cells; host or cells: HEK293 cells, pCAGGS vector
# assay.procedure: TGFα shedding assay; Exp. level WT (1:50)
# Assay type: cell-based
# applied.conditions: n = 3
No end group written: not given here.
value.kind: EC50 (nM)
One number for each entry, in nM.

Enquiry: State the recorded EC50 for this entry: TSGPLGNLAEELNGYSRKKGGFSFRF-NH2 [QRFP26]
Return: 182

* * *

# study.system: GPR103 Y214^5.38A (Homo sapiens, UniProt Q96P65, Y214A)
# Construct: we used human full-length QRFPR-encoding plasmids; expressed in transfected cells; host or cells: HEK293 cells, pCAGGS vector
# assay.procedure: TGFα shedding assay; Exp. level WT (1:50)
# Type: cell-based
# applied.conditions: n = 3
No end group written: not given here.
value.kind: pEC50
One number for each entry, as −log10 of the molar value.

Enquiry: State the recorded pEC50 for this entry: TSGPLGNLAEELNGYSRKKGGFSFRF-NH2 [QRFP26]
Return: 6.98

* * *

# study.system: GPR103 L14N-termA (Homo sapiens, UniProt Q96P65, L14A)
# Construct: we used human full-length QRFPR-encoding plasmids; expressed in transfected cells; host or cells: HEK293 cells, pCAGGS vector
# assay.procedure: TGFα shedding assay; Exp. level WT (1:5)
# Format: cell-based
# applied.conditions: n = 3
No end group written: not given here.
value.kind: pEC50
Give bare numbers, as −log10 of the molar value.

Enquiry: State the recorded pEC50 for this entry: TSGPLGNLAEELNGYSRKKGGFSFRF-NH2 [QRFP26]
Return: 8.12

* * *

# study.system: GPR103 Y194^ECL2A (Homo sapiens, UniProt Q96P65, Y194A)
# Construct: we used human full-length QRFPR-encoding plasmids; expressed in transfected cells; host or cells: HEK293 cells, pCAGGS vector
# assay.procedure: TGFα shedding assay; Exp. level WT (1:10)
# Format: cell-based
# applied.conditions: n = 3
No end group written: not given here.
value.kind: pEC50
One number for each entry, as −log10 of the molar value.

Enquiry: State the recorded pEC50 for this entry: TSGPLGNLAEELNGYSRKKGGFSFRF-NH2 [QRFP26]
Return: 7.03

* * *

# study.system: GPR103 W286^6.48A (Homo sapiens, UniProt Q96P65, W286A)
# Construct: we used human full-length QRFPR-encoding plasmids; expressed in transfected cells; host or cells: HEK293 cells (HEK293A in the flow cytometry section), pCAGGS vector
# Sequence (Q96P65 1-431 W286A): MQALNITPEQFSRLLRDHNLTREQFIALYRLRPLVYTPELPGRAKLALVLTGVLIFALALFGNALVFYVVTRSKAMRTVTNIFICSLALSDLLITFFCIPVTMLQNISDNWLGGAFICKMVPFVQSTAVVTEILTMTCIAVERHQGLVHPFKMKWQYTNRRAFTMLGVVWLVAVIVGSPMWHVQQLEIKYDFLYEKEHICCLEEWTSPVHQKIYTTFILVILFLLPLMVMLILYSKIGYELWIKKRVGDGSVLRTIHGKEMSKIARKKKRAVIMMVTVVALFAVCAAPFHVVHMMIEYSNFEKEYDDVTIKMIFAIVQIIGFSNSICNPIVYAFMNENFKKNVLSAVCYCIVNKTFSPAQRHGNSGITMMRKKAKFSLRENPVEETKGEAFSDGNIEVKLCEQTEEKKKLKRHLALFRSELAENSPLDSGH
# assay.procedure: TGFα shedding assay; Exp. level WT (1:20)
# Format: cell-based
# applied.conditions: n = 3
No end group written: not given here.
value.kind: EC50 (nM)
Answers are plain numbers, in nM.

Enquiry: Please provide the recorded EC50 for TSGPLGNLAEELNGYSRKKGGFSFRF-NH2 [QRFP26] , tested on GPR103 W286^6.48A (Homo sapiens, UniProt Q96P65, W286A).
Return: 1120

* * *

# study.system: GPR103 F322^7.43A (Homo sapiens, UniProt Q96P65, F322A)
# Construct: we used human full-length QRFPR-encoding plasmids; expressed in transfected cells; host or cells: HEK293 cells (HEK293A in the flow cytometry section), pCAGGS vector
# assay.procedure: TGFα shedding assay; Exp. level WT (1:50)
# Assay type: cell-based
# applied.conditions: n = 3
No end group written: not given here.
value.kind: pEC50
Answers are plain numbers, as −log10 of the molar value.

Enquiry: State the recorded pEC50 for this entry: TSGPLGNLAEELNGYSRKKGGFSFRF-NH2 [QRFP26]
Return: 7.61

meta.source: paper PMC11187126
